test system: K4 kissing-loop RNA reporter; assay: apparent KD of K4 kissing-loop reporter; higher = weaker reporter binding; details: Eterna round: R107; input ligand: FMN 200 uM;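 also: bound reporter read as fluorescence of individual clusters on recovered sequencing chips by microscopy, with normalized cluster intensities fitted with a binding model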
// map apparent KD of K4 kissing-loop reporter to label using range A: < 200 nM; range B: ≥ 200 nM and < 300 nM; range C: ≥ 300 nM

Residue codes | Assigned class
AAAUAUUGUUACCUGUUAACAUAGGGCCAACGAGGACCGGUACGGCCGCCACUCGUCUCAUAGCGAGUGAUGUUCGCACCGCCCA | range A
GAUAGGAAACUAUCAAAUCGGGAAACCGAUACCAGUAUGGAUUCAUACCCUUGGCAGCGGGAUUAUAAAAUAGGAGUGAUGUUCC [Theophylline A K4 16] | range B
UAAUAUCAACUUGUAGGAGUGAUGUUCCGCCGAGGACCGGUACGGCCGCCACUCGACAAAAUCUCAGUGUGGUACCUAGGAAUUU [theeternabot_exclusion_KL_Trp_A_24] | range C
UGGAGUUGACGAAAAGUCAACUCCUGAGAUACCAGUGACGAAGGUCACCCUUGGCAGCUCACUGCUAGUGAUGUUGGAAGAUAAA [whbob_SS_Theo_A_w48] | range C
AAAUAAAUGGCGGCCGCCACUGAACGCCUCCGCGUGGGUAUAUAGUGAUGUUAUAUGGCCGCCAUCAGGACCGGGCCAAAUAAAA [#08 K4 Tryptophan B Same State] | range C
UUAGUGACAAGUCAGAUUCUGACAAUUGAUACCAGAUAGAAUUCUAUCCCUUGGCAGCAGUGAUGUUGUUGCAAAUAGUCACAUU [AK3 Exc Theophylline A] | range B
CGGAGUGAUGUUCCGUUAAUUAAUUAUUUACGAGGACCGGUACGGCCGCCACUCGAUUUUGCUUUUAUUUAAUGUUUGGAAAUUU [JR_SSTryptoA_Sub006] | range A
GUGCAGUGAUGUUGCACGAGGAAAGACGAUACCAGCCGUAAAUAAGGCCCUUGGCAGCGUGGGCUAGCACAAAAUAUGCUAGUCU [Laleingeat] | range A
AGGAGUGAUGUUCCUACAUACACGGUCCGACGAGGACCGGUACGGCCGCCACUCGCGUCCCAGUGAUGUUGGGAUUUGGCGUACA [Exclusion Tryptophan A Gf 16] | range A
AAAGUCGGCUGUGAUACCAGUCAUAUAACAACAUAUCGCAGUGAUGUUGCGAGAUAGGAUGACCCUUGGCAGCACUCAGUACGAU [Same State Theophylline B GF 6] | range C
UUCUUGAUGGAAACAUCGAGGAUCACUGAUACCAGUAUCGAUAGAUACCCUUGGCAGCAGUGUCGGUGGUCACGAGUGAUGUUCG [Ex Theophylline A K4 12] | range C
